- Test system: Pseudomonas 4 (Pseudomonas peli)
- Assay Remarks: relative growth (AUC of 72 h growth curve relative to DMSO control, dAUC) (ratio); higher = more growth (less inhibition), active = hit call of the paper
- Applied Conditions: 20 µM
Rule: relative growth under 1 gives N, otherwise Y.

Is reported relative growth greater than or equal to 1 here: CCOC(=O)CC(SP(=S)(OC)OC)C(=O)OCC (configuration not stated)
Y

Same lookup for CCC(=O)Nc1ccc(Cl)c(Cl)c1 , please.
N

Moving on to the next compound: CN/C(=N/CC1CCOC1)N[N+](=O)[O-] (configuration not stated)
Y

One more compound: Oc1ccccc1-c1ccccc1
N

Would you mind doing COP(=S)(OC)SCN1C(=O)c2ccccc2C1=O as well?
N

###

- Tested on: Paenibacillus 1 (Paenibacillus castaneae)
- Assay Remarks: relative growth (AUC of 72 h growth curve relative to DMSO control, dAUC) (ratio); higher = more growth (less inhibition), active = hit call of the paper
- Applied Conditions: 20 µM
Property: relative growth
Give only the figure.

Compound	Value
CON(C)C(=O)Nc1ccc(Cl)c(Cl)c1	1
CC(C)(C)c1ccc(CSc2cnn(C(C)(C)C)c(=O)c2Cl)cc1	0.971
CCC(CC)Nc1c([N+](=O)[O-])cc(C)c(C)c1[N+](=O)[O-]	0.933
CC[C@H](C)C1O[C@]2(C=C[C@@H]1C)C[C@@H]1C[C@@H](C/C=C(\C)[C@@H](O[C@H]3C[C@H](OC)[C@@H](O[C@H]4C[C@H](OC)[C@H](NC)[C@H](C)O4)[C@H](C)O3)[C@@H](C)/C=C/C=C3\CO[C@@H]4[C@H](O)C(C)=C[C@@H](C(=O)O1)[C@]34O)O2 (stereo partly drawn)	0.0061
Nc1c([N+](=O)[O-])ccc(Oc2ccccc2)c1Cl	0.843

relative growth for CC[C@H]1CCC[C@H](O[C@H]2CC[C@H](N(C)C)[C@@H](C)O2)[C@@H](C)C(=O)C2=C[C@@H]3[C@@H](C=C(C)[C@@H]4C[C@@H](O[C@@H]5O[C@@H](C)[C@H](OC)[C@@H](OC)[C@H]5OC)C[C@@H]34)[C@@H]2CC(=O)O1.CC[C@H]1CCC[C@H](O[C@H]2CC[C@H](N(C)C)[C@@H](C)O2)[C@@H](C)C(=O)C2=C[C@H]3[C@@H]4C[C@H](O[C@@H]5O[C@@H](C)[C@H](OC)[C@@H](OC)[C@H]5OC)C[C@H]4C=C[C@H]3C2CC(=O)O1 ?
0.832

And what about the compound O=C1C=C(N(Cc2ccc(Cl)nc2)CC(F)F)CO1 ?
0.899

Proceed to O=[N+]([O-])/N=C1\NCCN1Cc1ccc(Cl)nc1
1.15

###

// values below are reported relative growth
- System: Paenibacillus 1 (Paenibacillus castaneae)
- Assay Remarks: relative growth (AUC of 72 h growth curve relative to DMSO control, dAUC) (ratio); higher = more growth (less inhibition), active = hit call of the paper
- Applied Conditions: 20 µM
Reply with the value as a number alone.

What does the data say about its relative growth? Entry: CNC(=O)/C=C(\C)OP(=O)(OC)OC
0.944

Same question, CC1(C)C(C=C(Cl)Cl)C1C(=O)OCc1cccc(Oc2ccccc2)c1 (stereo not given) this time
0.894

Another: CNC(=O)c1cc(C#N)cc(C)c1NC(=O)c1cc(Br)nn1-c1ncccc1Cl
0.915

Continue with CC(Oc1ccc(Oc2nc3ccc(Cl)cc3o2)cc1)C(=O)O (stereo not given)
1.11

Same read-out for CC(C)N(C)S(=O)(=O)NC(=O)c1cc(-n2c(=O)cc(C(F)(F)F)n(C)c2=O)c(F)cc1Cl ?
0.99

###

The following compounds are shown together with reported relative growth values.
- Test system: Bacillus 1 (Bacillus foraminis)
- Assay Remarks: relative growth (AUC of 72 h growth curve relative to DMSO control, dAUC) (ratio); higher = more growth (less inhibition), active = hit call of the paper
- Applied Conditions: 20 µM
Please reply with the value in numeric form only.

These recorded examples may help you get a feel for the data.
Compound	Assay System	relative growth
Cc1cccc2sc3nncn3c12	Bacillus 1 (Bacillus foraminis)	1.03
CC(Oc1ccc(Oc2nc3ccc(Cl)cc3o2)cc1)C(=O)O (configuration not stated)	Bacillus 1 (Bacillus foraminis)	1.02
COC(=O)NC(=S)Nc1ccccc1NC(=S)NC(=O)OC	Bacillus 1 (Bacillus foraminis)	0.942

Given Cc1nnc(-c2ccccc2)c(=O)n1N , state its recorded relative growth.
0.881

And what about the compound COP(=O)(NC(C)=O)SC (configuration not stated) ?
1.02

Entry to check: COP(=S)(OC)Oc1ccc(SC)c(C)c1
0.995

Likewise for CC(C1CC1)C(O)(Cn1cncn1)c1ccc(Cl)cc1 (configuration not stated) ?
1.09

###

- Tested on: Community 4
- Assay Remarks: relative growth (AUC of 72 h growth curve relative to DMSO control, dAUC) (ratio); higher = more growth (less inhibition), active = hit call of the paper
- Applied Conditions: 20 µM
// reported relative growth per item

Answered examples (5):
Compound	Property	Value
Fc1ccc([C@]2(Cn3cncn3)O[C@H]2c2ccccc2Cl)cc1 (racemic)	relative growth	0.965 (inactive)
CC1COC(Cn2cncn2)(c2ccc(Oc3ccc(Cl)cc3)cc2Cl)O1 (centres undefined)	relative growth	1.2 (inactive)
CC1(C(=O)Nc2ccc(O)c(Cl)c2Cl)CCCCC1	relative growth	0.977 (inactive)
C[N+](C)(C)CCCl	relative growth	0.978 (inactive)
CC1(C)C(C(=O)OC(C#N)c2cccc(Oc3ccccc3)c2)C1(C)C (centres undefined)	relative growth	1 (inactive)

# evaluate next
Fill in: relative growth of CC(Oc1ccc(Oc2ncc(C(F)(F)F)cc2Cl)cc1)C(=O)O (centres undefined) is ___
1.02 (inactive)

###

- System: Pseudomonas 6 (Pseudomonas sp.)
- Assay Remarks: relative growth (AUC of 72 h growth curve relative to DMSO control, dAUC) (ratio); higher = more growth (less inhibition), active = hit call of the paper
- Applied Conditions: 20 µM
Would you please tag the item Y when its relative growth is 1 or above, and N when it is below?

Some solved cases for reference:
Compound	Qualitative Label
CCC(CC)Nc1c([N+](=O)[O-])cc(C)c(C)c1[N+](=O)[O-]	Y
COc1ccc(C(=CC(=O)N2CCOCC2)c2ccc(Cl)cc2)cc1OC (mixture of isomers)	N

Decide: is the reported value of relative growth for CC(COc1ccc(Oc2ccccc2)cc1)Oc1ccccn1 (stereo unspecified) equal to or greater than 1?
Y

Request: O=C(O)c1nc(Cl)ccc1Cl
Y

Same again, this time with COc1cc(OC)nc(NC(=O)NS(=O)(=O)c2ncccc2C(=O)N(C)C)n1
N

Also CCNC(=O)NC(=O)/C(C#N)=N/OC ?
Y

// query: CC1(C)[C@H](/C=C(\Cl)C(F)(F)F)[C@@H]1C(=O)OC(C#N)c1cccc(Oc2ccccc2)c1 (stereo partly specified)
Y

Now try COCC(=O)N(c1c(C)cccc1C)C(C)C(=O)OC (stereo unspecified) .
Y

Do the same for C[C@@H]1[C@@H](c2ccc(Cl)cc2)SC(=O)N1C(=O)NC1CCCCC1 please
Y

###

- Tested on: Community 9
- Assay Remarks: relative growth (AUC of 72 h growth curve relative to DMSO control, dAUC) (ratio); higher = more growth (less inhibition), active = hit call of the paper
- Applied Conditions: 20 µM
Property: relative growth
Give the value as a plain number.

Use the examples below as a reference point.
Compound	relative growth
CS(=O)(=O)c1cc(C(F)(F)F)ccc1C(=O)c1cnoc1C1CC1	1.09
CC(C)N1C(=O)N(c2ccccc2)CS/C1=N\C(C)(C)C	1.03
CC1(C)[C@H](C(=O)O[C@H](C#N)c2cccc(Oc3ccccc3)c2)[C@@H]1C=C(Br)Br	1.05

For the next question, use this compound.
GET /values?readout=relative growth&system=Community 9&item= N#CC(CCc1ccc(Cl)cc1)(Cn1cncn1)c1ccccc1 (configuration not stated)
0.939

###

- Test system: Arthrobacter 1 (Arthrobacter humicola)
- Assay Remarks: relative growth (AUC of 72 h growth curve relative to DMSO control, dAUC) (ratio); higher = more growth (less inhibition), active = hit call of the paper
- Applied Conditions: 20 µM
Outcome: y for relative growth of at least 1; n for anything lower.

Compound	Qualitative Label
COC(=O)c1ccccc1S(=O)(=O)NC(=O)Nc1nc(C)nc(OC)n1	y
CCOP(=S)(OCC)Oc1nc(Cl)c(Cl)cc1Cl	y

Please check the record O=C(O)COc1ccc(Cl)cc1Cl and state if its relative growth is at or above 1.
n

Item: CCSC(C)CC1CC(=O)C(/C(CC)=N/OC/C=C/Cl)=C(O)C1 (mixture of isomers)
n

Entry to check: CNC(=O)c1cc(Cl)cc(C)c1NC(=O)c1cc(Br)nn1-c1ncccc1Cl
y

Try this compound next: Nc1c([N+](=O)[O-])ccc(Oc2ccccc2)c1Cl
n

Queued: COP(=S)(OC)Oc1ccc(SC)c(C)c1
y

Same again, this time with OC(Cc1ccccc1Cl)(Cn1nc[nH]c1=S)C1(Cl)CC1 (configuration not stated)
n
